A collection of variants and their measured yeast fitness
B1: tRNA (parent)
chain: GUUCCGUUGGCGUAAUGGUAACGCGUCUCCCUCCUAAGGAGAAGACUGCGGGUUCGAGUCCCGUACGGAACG

Variants of: B1
Experiment: yeast fitness relative to wild type (ratio to wild type); higher = fitter; tRNA-Arg(CCU), competitive growth, 37 C, YPD
Variants at the floor of the assay were thinned out.

Example entries and their recorded answers appear below.
[
  {
    "VARIANT_NOTATION": "A15U G23A C49G",
    "yeast fitness": 0.583
  },
  {
    "VARIANT_NOTATION": "C4A G12C U13G C30U A65U",
    "yeast fitness": "≤ 0.5"
  },
  {
    "VARIANT_NOTATION": "C11U C29U C49A",
    "yeast fitness": "≤ 0.5"
  },
  {
    "VARIANT_NOTATION": "C31U G38C G51C C55U",
    "yeast fitness": "≤ 0.5"
  },
  {
    "VARIANT_NOTATION": "A15U C24U C27U C49U",
    "yeast fitness": "≤ 0.5"
  },
  {
    "VARIANT_NOTATION": "G10A A21U U53A C66U",
    "yeast fitness": "≤ 0.5"
  },
  {
    "VARIANT_NOTATION": "C5G A42C U54G",
    "yeast fitness": "≤ 0.5"
  },
  {
    "VARIANT_NOTATION": "G9C G10C U47A",
    "yeast fitness": "≤ 0.5"
  },
  {
    "VARIANT_NOTATION": "C22A C24U G44C G48A",
    "yeast fitness": "≤ 0.5"
  },
  {
    "VARIANT_NOTATION": "U47A C55A G68A",
    "yeast fitness": 0.532
  }
]

Problem: Quick one: yeast fitness for U7C U28A G48C C62U A70C ?
Solution: ≤ 0.5

Problem: Quick one: yeast fitness for C31G G41A G63U ?
Solution: 0.609

Problem: Quick one: yeast fitness for A14C G18C U28A C30G A43G A57G C60U A65C G67U ?
Solution: 0.557

Problem: Quick one: yeast fitness for C5U C29A A69C ?
Solution: ≤ 0.5

Problem: Quick one: yeast fitness for G6A A21C C33G ?
Solution: ≤ 0.5

Problem: Quick one: yeast fitness for C5U C22G C29A A45U A70C ?
Solution: ≤ 0.5

Problem: Quick one: yeast fitness for U28A C31A ?
Solution: 0.687

Problem: Quick one: yeast fitness for U7A A36C G56A ?
Solution: ≤ 0.5

Problem: Quick one: yeast fitness for C22A A70C ?
Solution: 0.877

Problem: Quick one: yeast fitness for U16A G23C C29U C31G ?
Solution: ≤ 0.5

Problem: Quick one: yeast fitness for C29U C34G A65G ?
Solution: 0.668

Problem: Quick one: yeast fitness for U59A A69U ?
Solution: 0.817

Problem: Quick one: yeast fitness for G17A C29G U59G C61G C62U ?
Solution: ≤ 0.5

Problem: Quick one: yeast fitness for U13A C27U C31U ?
Solution: 0.673

Problem: Quick one: yeast fitness for A14U C27U A69G ?
Solution: ≤ 0.5

Source listed as the RNAGym collection of RNA variant scans (doi:10.1126/science.aae0568).
